# Experimental system: human CXCR3 (N-delta 4) (Homo sapiens, UniProt P49682)
# Construct: CD8 leader (N); Flag tag (N); expressed in transfected cells; host or cells: mouse pro-B Ba/F3 cells, stably transfected with pME18Sneo-hCXCR3 (N-delta 4); membrane preparation
# Sequence (P49682 5-368 limits assumed): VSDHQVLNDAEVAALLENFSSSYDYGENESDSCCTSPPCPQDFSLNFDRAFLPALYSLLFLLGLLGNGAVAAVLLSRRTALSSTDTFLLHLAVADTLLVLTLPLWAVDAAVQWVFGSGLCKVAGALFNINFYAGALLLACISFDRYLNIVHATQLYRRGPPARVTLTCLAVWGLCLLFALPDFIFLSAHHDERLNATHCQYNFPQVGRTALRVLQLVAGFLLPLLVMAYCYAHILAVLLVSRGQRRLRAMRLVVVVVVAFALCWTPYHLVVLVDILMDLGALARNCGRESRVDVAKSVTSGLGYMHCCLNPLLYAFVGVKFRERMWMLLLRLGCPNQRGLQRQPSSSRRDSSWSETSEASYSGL
# Experiment notes: Human CXCR3 (N-delta 4) Scintillation Proximity Assay (SPA), [125I] IP-10 binding
# Test conditions: IC50 rating; Ba/F3-hCXCR3 (N-delta 4) membranes, 25 pM [125I] IP-10; read-out: IC50
pIC50: −log10 of the molar value.
Reported pIC50 is given for each of the following compounds.
Endpoint label: pIC50

- CCNc1nnc(-c2cnc(N3CCN(C4CCN(C(=O)c5ccc(Cl)nc5N)CC4)[C@@H](CC)C3)c(C)n2)o1: > 7.60
- CC[C@H]1CN(c2ncc(-c3nnc(C)o3)nc2Cl)CCN1C1CCN(C(=O)c2ccc(Cl)cc2)CC1: > 7.60
- CC[C@H]1CN(c2ncc(-c3nnc(N)o3)nc2C)[C@H](C)CN1C1CCN(C(=O)c2ccc(Cl)cc2)CC1: > 7.60
- CC[C@H]1CN(c2nc(N)c(-c3nnc(C(N)=O)o3)nc2Cl)CCN1C1CCN(C(=O)c2ccc(Cl)cc2)CC1: > 7.60
- CCOC(=O)c1nnc(-c2nc(Cl)c(N3CCN(C4CCN(C(=O)c5ccc(Cl)cc5)CC4)[C@@H](CC)C3)nc2N)o1: < 7.00
- CC[C@H]1CN(c2ncc(-c3ncc[nH]3)nc2C)CCN1C1CCN(Cc2ccc(Cl)cc2)CC1: > 7.60
- CC[C@H]1CN(c2ncc(-c3nnc(C)o3)nc2C)CCN1C1CCN(C(=O)c2ccc(F)c(F)c2)CC1: > 7.60
- CC[C@H]1CN(c2nc(N)c(-c3nnc(N)o3)nc2Cl)CCN1C1CCN(C(=O)c2ccc(C#N)cc2)CC1: > 7.60
- CCOC(=O)c1nnc(-c2nc(Cl)c(N3CCN(C4CCN(C(=O)c5ccc(Cl)nc5N)CC4)[C@@H](CC)C3)nc2N)o1: < 7.00
- CC[C@H]1CN(c2ncc(-c3nnc(N)o3)nc2C)[C@H](C)CN1C1CCN([C@H](C)c2ccc(OC(F)(F)F)cc2)CC1: > 7.60
- CC[C@H]1CN(c2ncc(-c3ncc[nH]3)nc2C)CCN1C1CCN(C(=O)c2ccc(Cl)nc2N)CC1: > 7.60
- CCNc1nnc(-c2cnc(N3C[C@H](CC)N(C4CCN(C(=O)c5ccc(Cl)cc5)CC4)C[C@H]3C)c(Cl)n2)o1: > 7.60
- CCc1nnc(-c2cnc(N3CCN(C4CCN(C(=O)c5ccc(Cl)cc5)CC4)[C@@H](CC)C3)c(C)n2)[nH]1: > 7.60
- CC[C@H]1CN(c2nc(N)c(-c3nnc(N)o3)nc2Cl)CCN1C1CCN(C(=O)c2ccc(OC(F)(F)F)cc2)CC1: 7.00 to 7.60
